target: Androgen receptor (Rattus norvegicus) (UniProt P15207); experiment: Effective dose required to inhibit testosterone propionate-stimulated prostate weight gain by 50% […].; format: tissue-based; settings: Prostate gland
Sequence (P15207 whole entry S389L): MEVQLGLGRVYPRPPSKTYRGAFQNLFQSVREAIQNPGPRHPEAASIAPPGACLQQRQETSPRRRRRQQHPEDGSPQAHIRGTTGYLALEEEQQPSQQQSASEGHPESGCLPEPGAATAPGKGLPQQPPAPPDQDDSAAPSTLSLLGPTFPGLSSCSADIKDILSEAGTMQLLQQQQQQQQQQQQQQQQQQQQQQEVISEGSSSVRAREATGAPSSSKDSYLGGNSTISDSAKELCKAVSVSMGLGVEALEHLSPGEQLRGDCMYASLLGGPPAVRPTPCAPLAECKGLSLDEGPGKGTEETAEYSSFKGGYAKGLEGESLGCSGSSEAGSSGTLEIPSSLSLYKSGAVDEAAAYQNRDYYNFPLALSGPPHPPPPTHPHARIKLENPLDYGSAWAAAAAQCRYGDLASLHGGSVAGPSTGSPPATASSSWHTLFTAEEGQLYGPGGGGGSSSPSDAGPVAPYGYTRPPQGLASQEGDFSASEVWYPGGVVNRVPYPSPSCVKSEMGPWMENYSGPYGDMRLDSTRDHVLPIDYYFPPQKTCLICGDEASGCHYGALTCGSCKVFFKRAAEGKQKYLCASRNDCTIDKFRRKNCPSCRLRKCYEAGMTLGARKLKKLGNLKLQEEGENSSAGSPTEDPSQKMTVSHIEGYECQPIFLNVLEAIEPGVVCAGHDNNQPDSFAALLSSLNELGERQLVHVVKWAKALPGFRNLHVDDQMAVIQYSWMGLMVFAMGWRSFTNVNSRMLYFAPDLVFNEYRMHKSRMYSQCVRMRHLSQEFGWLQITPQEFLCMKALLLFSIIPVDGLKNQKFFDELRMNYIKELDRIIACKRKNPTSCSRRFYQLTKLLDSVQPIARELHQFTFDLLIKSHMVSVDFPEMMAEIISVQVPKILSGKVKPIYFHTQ
Provide the reported ED50 of each item.

Form entry - test system: Androgen receptor (Rattus norvegicus) (UniProt P15207); read-out: ED50; compound: CC1(C(=O)c2cc3c(o2)C[C@@H]2CCC4C5CC[C@H](O)[C@@]5(C)CCC4[C@@]2(C)C3)CC1 (some centres undefined) > 100 mg/kg

Form entry - test system: Androgen receptor (Rattus norvegicus) (UniProt P15207); read-out: ED50; compound: CCCC(=O)c1cc2c(o1)C[C@@H]1CCC3C4CC[C@H](O)[C@@]4(C)CCC3[C@@]1(C)C2 (some centres undefined) > 75 mg/kg

Form entry - test system: Androgen receptor (Rattus norvegicus) (UniProt P15207); read-out: ED50; compound: C#C[C@]1(O)CCC2C3CC[C@H]4Cc5oc(C(=O)O)cc5C[C@]4(C)C3CC[C@@]21C (some centres undefined) > 100 mg/kg

Form entry - test system: Androgen receptor (Rattus norvegicus) (UniProt P15207); read-out: ED50; compound: CC(C)(C)C(=O)c1cc2c(o1)C[C@@H]1CCC3C4CC[C@H](O)[C@@]4(C)CCC3[C@@]1(C)C2 (some centres undefined) > 100 mg/kg

Form entry - test system: Androgen receptor (Rattus norvegicus) (UniProt P15207); read-out: ED50; compound: C[C@]12CCC3C(CC[C@H]4Cc5occc5C[C@]34C)C1CC[C@@H]2O (some centres undefined) > 100 mg/kg

Form entry - test system: Androgen receptor (Rattus norvegicus) (UniProt P15207); read-out: ED50; compound: C[C@]12CCC3C(CC[C@H]4Cc5oc(C(=O)O)cc5C[C@]34C)C1CC[C@@H]2O (some centres undefined) > 100 mg/kg

Form entry - test system: Androgen receptor (Rattus norvegicus) (UniProt P15207); read-out: ED50; compound: CCC(=O)c1cc2c(o1)C[C@@H]1CCC3C4CC[C@H](O)[C@@]4(C)CCC3[C@@]1(C)C2 (some centres undefined) 33 mg/kg

Form entry - test system: Androgen receptor (Rattus norvegicus) (UniProt P15207); read-out: ED50; compound: COC(=O)c1cc2c(o1)C[C@@H]1CCC3C4CC[C@H](O)[C@@]4(C)CCC3[C@@]1(C)C2 (some centres undefined) > 100 mg/kg

Form entry - test system: Androgen receptor (Rattus norvegicus) (UniProt P15207); read-out: ED50; compound: C#C[C@]1(O)CCC2C3CC[C@H]4Cc5oc(C=O)cc5C[C@]4(C)C3CC[C@@]21C (some centres undefined) 100 mg/kg

Form entry - test system: Androgen receptor (Rattus norvegicus) (UniProt P15207); read-out: ED50; compound: C#C[C@]1(O)CCC2C3CC[C@H]4Cc5oc(C(C)=O)cc5C[C@@H]4C3CC[C@@]21C (some centres undefined) 100 mg/kg

Form entry - test system: Androgen receptor (Rattus norvegicus) (UniProt P15207); read-out: ED50; compound: C#C[C@]1(O)CCC2C3CC[C@H]4Cc5oc(C(N)=O)cc5C[C@]4(C)C3CC[C@@]21C (some centres undefined) 56 mg/kg

Form entry - test system: Androgen receptor (Rattus norvegicus) (UniProt P15207); read-out: ED50; compound: C[C@]12CCC3C(CC[C@H]4Cc5oc(C=O)cc5C[C@H]34)C1CC[C@@H]2O (some centres undefined) > 100 mg/kg

Form entry - test system: Androgen receptor (Rattus norvegicus) (UniProt P15207); read-out: ED50; compound: C[C@]12CCC3C(CC[C@H]4Cc5oc(C=O)cc5C[C@]34C)C1CC[C@@H]2O (some centres undefined) > 100 mg/kg

Form entry - test system: Androgen receptor (Rattus norvegicus) (UniProt P15207); read-out: ED50; compound: C#C[C@]1(O)CCC2C3CC[C@H]4Cc5oc(C(=O)OC)cc5C[C@]4(C)C3CC[C@@]21C (some centres undefined) > 50 mg/kg

Form entry - test system: Androgen receptor (Rattus norvegicus) (UniProt P15207); read-out: ED50; compound: C[C@]12CCC3C(CC[C@H]4Cc5oc(C(=O)c6ccccc6)cc5C[C@]34C)C1CC[C@@H]2O (some centres undefined) > 100 mg/kg

Form entry - test system: Androgen receptor (Rattus norvegicus) (UniProt P15207); read-out: ED50; compound: CC(=O)c1cc2cc3c(cc2o1)CC[C@@H]1[C@@H]3CC[C@]2(C)[C@@H](O)CC[C@@H]12 100 mg/kg

Form entry - test system: Androgen receptor (Rattus norvegicus) (UniProt P15207); read-out: ED50; compound: C#C[C@]1(O)CCC2C3CC[C@H]4Cc5oc(C(C)=O)cc5C[C@]4(C)C3CC[C@@]21C (some centres undefined) > 100 mg/kg

Form entry - test system: Androgen receptor (Rattus norvegicus) (UniProt P15207); read-out: ED50; compound: C#C[C@]1(O)CCC2C3CC[C@H]4Cc5oc(C(=O)CC)cc5C[C@]4(C)C3CC[C@@]21C (some centres undefined) 30 mg/kg

Form entry - test system: Androgen receptor (Rattus norvegicus) (UniProt P15207); read-out: ED50; compound: C[C@]12CCC3C(CC[C@H]4Cc5oc(C(=O)C6CC6)cc5C[C@]34C)C1CC[C@@H]2O (some centres undefined) 100 mg/kg

---

biological target: Androgen receptor (Rattus norvegicus); conditions: Prostate gland; filed as agonist
metric: ED50

C#C[C@]1(O)CCC2C3CC[C@H]4Cc5oc(C(=O)C(Cl)(Cl)Cl)cc5C[C@]4(C)C3CC[C@@]21C (stereo partly drawn) :: Agonist
CC(=O)c1cc2c(o1)C[C@@H]1CCC3C(CC[C@@]4(C)C3CC[C@@H]4O)[C@H]1C2 (stereo partly drawn) :: Agonist
C#C[C@]1(O)CCC2C3CC[C@H]4Cc5oc(C(=O)C(F)(F)F)cc5C[C@]4(C)C3CC[C@@]21C (stereo partly drawn) :: Agonist
